# runDescription: Cytotoxicity against african green monkey Vero cells assessed as cell viability at 10 ug/ml after 24 hrs by eosin staining based microscopy
# conditionInfo: chlorocebus sabaeus, read-out: Activity
observedProperty: viability at 24 h, 10 ug/ml (%)
The figure you give is taken to be in %; do not add the unit.

For orientation, consider the following solved cases.
Answer with reported viability at 24 h, 10 ug/ml of CC(C)C1=C(O[Si](C)(C)C)C(=O)C2=C(C=C[C@@H]3[C@]24CCC[C@]3(C)C(=O)OC4)C1=O
83.6

Answer with reported viability at 24 h, 10 ug/ml of CC(=O)OC1=C(C(C)C)C(=O)C2=C(C1=O)[C@]13CCC[C@](C)(C(=O)OC1)[C@@H]3C=C2
92.4

Answer with reported viability at 24 h, 10 ug/ml of CC(C)C1=C(O)C(=O)C2=C(C=C[C@@H]3[C@]24CCC[C@]3(C)C(=O)OC4)C1=O
88.4

With those in mind, consider the next compound.
Answer with reported viability at 24 h, 10 ug/ml of C=CCOC1=C(C(C)C)C(=O)C2=C(C1=O)[C@]13CCC[C@](C)(C(=O)OC1)[C@@H]3C=C2
85.5
